target-of-assay: human TLR9 (Homo sapiens)
Sequence (Q9NR96 26-1032): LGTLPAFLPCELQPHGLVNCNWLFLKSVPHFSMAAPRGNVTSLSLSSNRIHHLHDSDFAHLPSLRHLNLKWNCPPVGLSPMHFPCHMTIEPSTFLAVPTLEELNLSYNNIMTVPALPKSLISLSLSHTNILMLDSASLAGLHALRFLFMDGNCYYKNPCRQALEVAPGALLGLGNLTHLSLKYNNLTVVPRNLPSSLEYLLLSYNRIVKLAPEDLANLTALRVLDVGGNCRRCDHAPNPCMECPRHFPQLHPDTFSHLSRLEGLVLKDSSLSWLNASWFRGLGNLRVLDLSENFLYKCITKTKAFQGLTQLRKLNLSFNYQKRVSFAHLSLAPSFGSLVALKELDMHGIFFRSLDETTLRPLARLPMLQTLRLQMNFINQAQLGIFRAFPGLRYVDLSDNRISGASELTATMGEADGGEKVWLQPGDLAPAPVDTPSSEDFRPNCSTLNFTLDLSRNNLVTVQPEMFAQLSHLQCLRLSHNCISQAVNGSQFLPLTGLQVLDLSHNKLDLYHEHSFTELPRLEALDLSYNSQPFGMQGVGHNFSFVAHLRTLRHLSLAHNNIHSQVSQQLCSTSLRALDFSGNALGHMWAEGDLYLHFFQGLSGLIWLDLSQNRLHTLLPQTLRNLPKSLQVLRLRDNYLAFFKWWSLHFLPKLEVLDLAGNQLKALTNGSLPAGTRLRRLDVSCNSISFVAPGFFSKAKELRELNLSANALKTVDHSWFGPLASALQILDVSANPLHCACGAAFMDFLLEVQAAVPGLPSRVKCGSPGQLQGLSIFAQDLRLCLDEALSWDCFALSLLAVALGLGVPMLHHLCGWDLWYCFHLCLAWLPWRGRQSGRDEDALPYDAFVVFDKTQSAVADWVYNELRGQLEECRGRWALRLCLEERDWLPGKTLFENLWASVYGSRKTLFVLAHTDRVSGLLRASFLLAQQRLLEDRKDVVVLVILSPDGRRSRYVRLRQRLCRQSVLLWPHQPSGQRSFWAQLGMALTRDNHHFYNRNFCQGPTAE
test-protocol: TLR9 inhibition reporter assay (HEK-Blue cells, SEAP reporter, ODN2006 stimulation)
conditions: HEK-Blue cells overexpressing human TLR9, ODN2006 5 nM
measured-property: IC50 (nM)

Use these answered entries as a reference point.
>  <compound>
CCc1c(-c2ccc(OC)c(OC)c2)[nH]c2ccc(C3CCN(C(=O)CN4CCCN(C(C)=O)CC4)CC3)cc12

>  <measured-property>
IC50

>  <unit>
nM

>  <assay-value>
6440

$$$$
>  <compound>
CCN(C)CCN1CCC(c2ccc3[nH]c(-c4ccc(OC)c(OC)c4)c(C)c3c2)CC1

>  <measured-property>
IC50

>  <unit>
nM

>  <assay-value>
1510

$$$$
>  <compound>
CNCCN1CCC(c2ccc3[nH]c(-c4ccc(OC)c(OC)c4)c(CC(F)(F)F)c3c2)CC1

>  <measured-property>
IC50

>  <unit>
nM

>  <assay-value>
626

$$$$
>  <compound>
COc1ccc(-c2[nH]c3ccc(C4CCN(Cc5cccc(C(F)(F)F)c5)CC4)cc3c2C(C)C)cc1OC

>  <measured-property>
IC50

>  <unit>
nM

>  <assay-value>
18600

$$$$
>  <compound>
CNCCN1CCC(c2ccc3[nH]c(-c4ccc(OC)c(OC)c4)c(Cl)c3c2)CC1

>  <measured-property>
IC50

>  <unit>
nM

>  <assay-value>
409

$$$$

(a) COc1ccc(-c2[nH]c3ccc(C4CCN(C(=O)CNC5CCC(C(C)(C)O)CC5)CC4)cc3c2C(C)C)cc1OC (stereo not shown)
(b) CCN1CCCC(N2CCC(c3ccc4[nH]c(-c5ccc(OC)c(OC)c5)c(C)c4c3)CC2)CC1 (stereo not shown)
(c) COc1ccc(-c2[nH]c3ccc(C4CCN(C)CC4)cc3c2CC(F)(F)F)cc1OC
(d) COc1ccc(-c2[nH]c3ccc(C4CCN(C(=O)CN5CCN(CC(=O)NC(C)C)CC5)CC4)cc3c2C(C)C)cc1OC
Rank ascending by IC50. Reply with the item labels sorted in the order that was asked for.
b, a, c, d
(b: 397 nM, a: 1140 nM, c: 2280 nM, d: 4980 nM)

----------
target-of-assay: human TLR8 (Homo sapiens, UniProt Q9NR97)
Sequence (Q9NR97 27-1041): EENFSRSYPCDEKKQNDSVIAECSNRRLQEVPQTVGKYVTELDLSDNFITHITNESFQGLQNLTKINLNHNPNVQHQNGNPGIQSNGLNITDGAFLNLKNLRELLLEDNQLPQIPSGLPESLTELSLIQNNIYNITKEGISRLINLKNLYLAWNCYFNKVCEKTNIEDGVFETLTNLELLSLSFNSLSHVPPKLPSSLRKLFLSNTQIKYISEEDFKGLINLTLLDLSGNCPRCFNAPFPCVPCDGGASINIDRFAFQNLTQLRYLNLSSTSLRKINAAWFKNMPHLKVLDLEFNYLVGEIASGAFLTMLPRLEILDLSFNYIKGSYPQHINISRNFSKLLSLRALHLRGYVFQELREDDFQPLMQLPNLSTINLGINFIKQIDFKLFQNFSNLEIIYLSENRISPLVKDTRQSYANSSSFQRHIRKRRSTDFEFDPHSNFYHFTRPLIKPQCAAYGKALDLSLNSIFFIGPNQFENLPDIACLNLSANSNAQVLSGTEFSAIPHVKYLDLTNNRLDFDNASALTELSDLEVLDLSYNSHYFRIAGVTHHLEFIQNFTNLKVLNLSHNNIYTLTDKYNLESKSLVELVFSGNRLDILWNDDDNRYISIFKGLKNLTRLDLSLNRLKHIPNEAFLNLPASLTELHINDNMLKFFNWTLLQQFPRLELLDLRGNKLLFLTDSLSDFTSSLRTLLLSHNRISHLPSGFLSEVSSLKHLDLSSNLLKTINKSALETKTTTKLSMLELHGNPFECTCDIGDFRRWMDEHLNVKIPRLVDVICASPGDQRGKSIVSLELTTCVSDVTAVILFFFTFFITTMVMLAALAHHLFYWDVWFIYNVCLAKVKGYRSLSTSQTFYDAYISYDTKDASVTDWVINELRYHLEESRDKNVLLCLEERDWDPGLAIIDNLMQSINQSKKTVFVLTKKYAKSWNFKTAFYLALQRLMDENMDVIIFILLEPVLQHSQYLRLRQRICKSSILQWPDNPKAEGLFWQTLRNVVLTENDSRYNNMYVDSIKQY
test-protocol: TLR8 inhibition reporter assay (HEK-Blue cells, SEAP reporter, R848 stimulation)
conditions: HEK-Blue cells overexpressing human TLR8, R848 15.9 μM
measured-property: IC50 (nM)

>  <compound>
COc1ccc(-c2[nH]c3ccc(C4CCN(C(=O)CN5CCN(C)CC5)CC4)cc3c2C)cc1OC

>  <measured-property>
IC50

>  <unit>
nM

>  <assay-value>
11200

$$$$
>  <compound>
COc1ccc(-c2[nH]c3ccc(C4CCN(C(=O)CN5CCC[C@H](C(=O)N6CC7CNCC7C6)C5)CC4)cc3c2C(C)C)cc1OC (stereo partly shown)

>  <measured-property>
IC50

>  <unit>
nM

>  <assay-value>
128

$$$$
>  <compound>
COc1ccc(-c2[nH]c3ccc(C4CCNCC4(F)F)cc3c2C(C)C)cc1OC (stereo not shown)

>  <measured-property>
IC50

>  <unit>
nM

>  <assay-value>
147

$$$$
>  <compound>
COc1ccc(-c2[nH]c3ccc(C4CCN(C(=O)CNCC(N)=O)CC4)cc3c2C(C)C)cc1OC

>  <measured-property>
IC50

>  <unit>
nM

>  <assay-value>
118

$$$$

(I) COc1ccc(-c2[nH]c3ccc(C4CCN(C(=O)CNC5CCC(N(C)C)CC5)CC4)cc3c2C(C)C)cc1OC (stereo not shown)
(II) CCN(CC)C(=O)C1CCCN(CC(=O)N2CCC(c3ccc4[nH]c(-c5ccc(OC)c(OC)c5)c(C(C)C)c4c3)CC2)C1 (stereo not shown) [Example 224]
Between the entries labelled I and II , which has a larger IC50 value on record? API: response body contains the label of the selected item.
I
(I: 163 nM, II: 27 nM)

----------
target-of-assay: human TLR8 (Homo sapiens)
Construct: host or cells: HEK-Blue cells
test-protocol: TLR8 inhibition reporter assay (HEK-Blue cells, SEAP reporter, R848 stimulation)
Assay type: cell-based
conditions: HEK-Blue cells overexpressing human TLR8, R848 15.9 μM
measured-property: IC50 (nM)

>  <smi>
COc1ccc(-c2[nH]c3ccc(C4CCN(C5CC(C)(C)NC(C)(C)C5)CC4)cc3c2C)cc1OC

>  <IC50 [nM]>
616

$$$$

(P) COc1ccc(-c2[nH]c3ccc(C4CCN(C(=O)CNC[C@H](O)CO)CC4)cc3c2C(C)C)cc1OC
(Q) CCC(CC)NC(=O)CN1CCC(c2ccc3[nH]c(-c4ccc(OC)c(OC)c4)c(CC(F)(F)F)c3c2)CC1
Given the two records P and Q , choose the one whose IC50 value is lower. API: response body contains the label of the selected item.
P
(P: 39 nM, Q: 451 nM)

----------
target-of-assay: human TLR9 (Homo sapiens)
test-protocol: TLR9 inhibition reporter assay (HEK-Blue cells, SEAP reporter, ODN2006 stimulation)
conditions: HEK-Blue cells overexpressing human TLR9, ODN2006 5 nM
pIC50: −log10 of the molar value.
measured-property: pIC50

Use these answered entries as a reference point.
>  <compound>
COc1ccc(-c2[nH]c3ccc(C4CCN(C(=O)CN5CCCC(CO)C5)CC4)cc3c2C(C)C)cc1OC (stereo not drawn) [Example 226]

>  <assay-value>
5.85

$$$$
>  <compound>
COc1ccc(-c2[nH]c3ccc(C4CCN(C(=O)CN5CCCC(CO)C5)CC4)cc3c2C(C)C)cc1OC (stereo not drawn) [Example 249]

>  <assay-value>
6.11

$$$$

(a) COc1ccc(-c2[nH]c3ccc(C4CCN(Cc5ccc6cnccc6c5)CC4)cc3c2C)cc1OC [Example 31]
(b) COc1ccc(-c2[nH]c3ccc(C4CCN(CC(=O)N5CCCC(CO)C5)CC4)cc3c2C(C)C)cc1OC (stereo not drawn) [Example 275]
Given the two records a and b , choose the one whose pIC50 value is lower. API: response body contains the label of the selected item.
b
(b: 5.78, a: 6.65)

(I) COc1ccc(-c2[nH]c3ccc(C4CCN(C(=O)CN5CCC[C@@H](C(=O)N6CCC(CCO)CC6)C5)CC4)cc3c2C(C)C)cc1OC [Example 306]
(II) COc1ccc(-c2[nH]c3ccc(C4CCN(C5COC5)CC4)cc3c2C)cc1OC [Example 7]
Given the two records I and II , choose the one whose pIC50 value is lower. API: response body contains the label of the selected item.
I

----------
Recorded IC50 values for a group of molecules are listed next.
target-of-assay: UniProt Q9NR96
test-protocol: TLR9 inhibition reporter assay (HEK-Blue cells, SEAP reporter, ODN2006 stimulation)
conditions: HEK-Blue cells overexpressing human TLR9, ODN2006 5 nM
Text: TLR7/8/9 Inhibition Reporter Assays HEK-Blue™-cells (Invivogen) overexpressing human TLR7, TLR8 or TLR9 receptors were used for screening inhibitors of these receptors using an inducible SEAP (secreted embryonic alkaline phosphatase) reporter gene under the control of the IFN-β minimal promoter fused to five NF-κB and AP-1-binding sites. […]

Entry COc1ccc(-c2[nH]c3ccc(C4CCN(C(=O)CCn5cccc5)CC4)cc3c2CC(F)(F)F)cc1OC — recorded IC50 = ≥ 50 µM

Entry COc1ccc(-c2[nH]c3ccc(C4CCN(C(=O)CN5CCOCC5)CC4)cc3c2C(C)C)cc1OC — recorded IC50 = ≥ 50 µM

Entry CCc1c(-c2ccc(OC)c(OC)c2)[nH]c2ccc(C3CCN(C4CCN(Cc5ccc(-c6ccccc6)s5)CC4)CC3)cc12 — recorded IC50 = ≥ 50 µM

----------
target-of-assay: UniProtKB Q9NYK1
Sequence (Q9NYK1 27-1049): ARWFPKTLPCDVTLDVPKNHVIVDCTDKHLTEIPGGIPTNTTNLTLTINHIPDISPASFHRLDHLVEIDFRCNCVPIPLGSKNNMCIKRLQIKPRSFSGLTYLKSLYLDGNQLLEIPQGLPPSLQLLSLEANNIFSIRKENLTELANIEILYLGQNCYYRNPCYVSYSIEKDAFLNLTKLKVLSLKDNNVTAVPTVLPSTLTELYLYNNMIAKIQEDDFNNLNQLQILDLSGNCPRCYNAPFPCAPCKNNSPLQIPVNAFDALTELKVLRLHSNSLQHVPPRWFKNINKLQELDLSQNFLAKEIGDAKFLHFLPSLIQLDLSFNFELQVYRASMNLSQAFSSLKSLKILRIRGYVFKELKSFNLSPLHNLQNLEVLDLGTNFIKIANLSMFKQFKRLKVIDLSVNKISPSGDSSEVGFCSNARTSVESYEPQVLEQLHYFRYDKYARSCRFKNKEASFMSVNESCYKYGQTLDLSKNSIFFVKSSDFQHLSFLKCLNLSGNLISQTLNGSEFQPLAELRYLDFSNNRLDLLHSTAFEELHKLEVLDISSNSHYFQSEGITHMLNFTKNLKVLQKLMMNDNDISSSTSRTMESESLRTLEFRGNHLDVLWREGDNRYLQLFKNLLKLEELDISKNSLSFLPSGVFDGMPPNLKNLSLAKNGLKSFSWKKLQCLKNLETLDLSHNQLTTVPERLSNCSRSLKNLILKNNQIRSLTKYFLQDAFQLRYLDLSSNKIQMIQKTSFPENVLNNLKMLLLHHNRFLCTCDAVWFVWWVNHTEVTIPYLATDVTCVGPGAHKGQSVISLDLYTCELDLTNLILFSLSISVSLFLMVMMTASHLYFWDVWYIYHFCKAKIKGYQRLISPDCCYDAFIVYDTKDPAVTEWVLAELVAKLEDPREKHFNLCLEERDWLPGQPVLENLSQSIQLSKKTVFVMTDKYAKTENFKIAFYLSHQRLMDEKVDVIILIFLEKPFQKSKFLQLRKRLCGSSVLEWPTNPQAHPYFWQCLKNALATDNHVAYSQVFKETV
test-protocol: TLR7 inhibition reporter assay (HEK-Blue cells, SEAP reporter, gardiquimod stimulation)
conditions: HEK-Blue cells overexpressing human TLR7, gardiquimod 7.5 μM
measured-property: IC50 (nM)

Use these answered entries as a reference point.
>  <molecule>
COc1ccc(-c2[nH]c3ccc(C4CCN(C(=O)C[C@H](C)O)CC4)cc3c2CC(F)(F)F)cc1OC

>  <unit>
nM

>  <IC50>
458

$$$$
>  <molecule>
COc1ccc(-c2[nH]c3ccc(C4CCN(C5CCN(C6CC6)CC5)CC4)cc3c2C)cc1OC

>  <unit>
nM

>  <IC50>
101

$$$$
>  <molecule>
COc1ccc(-c2[nH]c3ccc(C4CCN(C(=O)CN5CCCC(C(=O)NC6CCN(C(C)C)CC6)C5)CC4)cc3c2C(C)C)cc1OC (single isomer, unassigned) [Example 281]

>  <unit>
nM

>  <IC50>
17

$$$$
>  <molecule>
CNCC(=O)N1CCC(c2ccc3[nH]c(-c4ccc(OC)c(OC)c4)c(CC(F)(F)F)c3c2)CC1

>  <unit>
nM

>  <IC50>
58

$$$$
>  <molecule>
CCCC[C@@H](CO)NCC(=O)N1CCC(c2ccc3[nH]c(-c4ccc(OC)c(OC)c4)c(CC)c3c2)CC1

>  <unit>
nM

>  <IC50>
1180

$$$$

(a) CCc1c(-c2ccc(OC)c(OC)c2)[nH]c2ccc(C3CCN(C4CCN(Cc5cc6ccccc6n5C)CC4)CC3)cc12
(b) COc1ccc(-c2[nH]c3ccc(C4CCN(Cc5cccn5C)CC4)cc3c2C)cc1OC
(c) COc1ccc(-c2[nH]c3ccc(C4CCN(C5CCN(C6CCOCC6)CC5)CC4)cc3c2C)cc1OC
(d) COc1ccc(-c2[nH]c3ccc(C4CCN(C5CCCN(CC(C)C)C5)CC4)cc3c2C)cc1OC (stereo not drawn) [Example 416]
Rank ascending by IC50. Reply with the item labels sorted in the order that was asked for.
c, d, b, a
(c: 348 nM, d: 677 nM, b: 1630 nM, a: 4690 nM)
